# System: anemic decerebrate rigidity (α-rigidity)
# protocolText: Effect on anemic decerebrate rigidity (α-rigidity), EMG activity of M. triceps brachii, cumulative i.v. injection
# Assay type: in vivo, Male rats of Wistar strain
# reportedConditions: time from disappearance to reappearance of EMG activities after total dose of 20 mg/kg, i.v., rats
# Experimental: Anemic decerebrate rigidity is known to be a model showing the abnormal hypertonia. This model was prepared according to the method of Fukuda et al [cf. Japan. J. Pharmacol. 24, 810-813 (1974)]. Male rats of Wistar strain, weighing 250 to 350 g, were used in groups of 5 animals. […] The rat was placed on its back and the hindlimbs fixed. Electromyogram (EMG) was recorded by a coaxial needle electrode inserted into the Musculus triceps brachii of the forelimbs. […]
Respond with true for α-Rigidity reducing effect Duration values of 10 min and above, false for values below.

# bool: α-Rigidity reducing effect Duration of CCOc1ccc(C(=O)C(C)CN2CCCC2)c(C)c1C (stereo not drawn) >= 10 min true

# bool: α-Rigidity reducing effect Duration of Cc1ccc(C(=O)C(C)CN2CCCCC2)cc1 (stereo not drawn) >= 10 min false

# bool: α-Rigidity reducing effect Duration of COc1ccc(C(=O)C(C)CN2CCCC2)c(C)c1C (stereo not drawn) >= 10 min true

# bool: α-Rigidity reducing effect Duration of COc1ccc(C(=O)C(C)CN2CCCCC2)c(C)c1C (stereo not drawn) >= 10 min true

# bool: α-Rigidity reducing effect Duration of Cc1ccc(C(=O)C(C)CN2CCCCC2)cc1C (stereo not drawn) >= 10 min false

# bool: α-Rigidity reducing effect Duration of CCc1ccc(C(=O)C(C)CN2CCCCC2)cc1 (stereo not drawn) >= 10 min false
